Just for reference, patent US9682954B2 is where these values come from.

EXPERIMENT: in vitro
MEASUREMENT_CONDITIONS: human
MEASURE_NAME: CC50 at 72 h (µM)
Please reply with the bare figure in µM and do not write the unit itself.

CCc1cccc2c1N(C)Cc1cc(OC(=O)c3ccccc3)c(OC(=O)c3ccccc3)cc1-2 [Compound 10o] : 91.5

In the following, a different compound is considered.
May I ask what CC50 at 72 h has been recorded for CCc1cccc2c1N(C)Cc1cc(OCc3ccccc3)c(OCc3ccccc3)cc1-2 [Compound 10g] ? 30.2

* * *

A collection of compounds and their measured pEC50
Tested on: HCV
EXPERIMENT: microbe, parasite or virus in culture
Format: cell-based, Hepatitis C Virus (HCV)
MEASUREMENT_CONDITIONS: Hepatitis C virus, Huh7.5, 72 h, Huh7.5 cells infected with HCV, intracellular HCV RNA by qRT-PCR, Reed-Muench method
On this scale, pEC50 is minus log10 of a concentration expressed in M (mol/L).

C=Cc1cccc2c1N(C)Cc1cc(OCc3ccccc3)c(OCc3ccccc3)cc1-2 [Compound 11e] : 4.87
C=Cc1cccc2c1N(C)Cc1cc(OC(C)=O)c(OC(C)=O)cc1-2 [Compound 11h] : 5.79
C=Cc1cccc2c1N(C)Cc1cc(O)c(O)cc1-2 [Compound 11] : 5.08

May I ask what pEC50 has been recorded for CCc1cccc2c1N(C)Cc1cc(OC(=O)CC(C)C)c(OC(=O)CC(C)C)cc1-2 [Compound 10n] ? 5.84

May I ask what pEC50 has been recorded for C=CCOc1cc2c(cc1OCC=C)-c1cccc(C=C)c1N(C)C2 [Compound 11a] ? 4.54

May I ask what pEC50 has been recorded for C=Cc1cccc2c1N(C)Cc1cc(OC(=O)CC(C)C)c(OC(=O)CC(C)C)cc1-2 [Compound 11l] ? 5.49

May I ask what pEC50 has been recorded for C#CCOc1cc2c(cc1OCC#C)-c1cccc(C=C)c1N(C)C2 [Compound 11b] ? 5.38
